# kon listing for each entry below
Target: T1, purified human CD117 ectodomain (R&D Systems #332-SR) (human, UniProt P10721 26-524)
T1 construct: extracellular domain; Bought protein; also called c-kit; purified recombinant human CD117 ectodomain
T1 sequence (P10721 26-524): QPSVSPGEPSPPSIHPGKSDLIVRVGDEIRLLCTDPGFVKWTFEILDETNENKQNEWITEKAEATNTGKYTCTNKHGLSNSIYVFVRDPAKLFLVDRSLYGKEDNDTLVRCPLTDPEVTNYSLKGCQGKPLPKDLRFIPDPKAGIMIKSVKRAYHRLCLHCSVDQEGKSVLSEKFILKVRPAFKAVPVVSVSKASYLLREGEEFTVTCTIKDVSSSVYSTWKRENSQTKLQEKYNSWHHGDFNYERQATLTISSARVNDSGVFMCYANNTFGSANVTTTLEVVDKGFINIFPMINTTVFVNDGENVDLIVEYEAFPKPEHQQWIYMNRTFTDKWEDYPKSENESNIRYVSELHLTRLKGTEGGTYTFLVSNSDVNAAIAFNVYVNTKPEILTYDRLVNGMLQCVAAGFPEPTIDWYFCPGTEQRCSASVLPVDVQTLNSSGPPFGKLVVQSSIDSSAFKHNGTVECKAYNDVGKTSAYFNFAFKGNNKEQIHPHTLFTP
Test: BLI, purified IgG on sensor, soluble ectodomain; apparent monovalent
Be sure to follow the number with its unit.

Sample answers from the record:
[[record]]
binder = "HC-21/LC-21 (Ab21) (antibody, IgG1, V domains shown, From rat immunization/hybridoma; purified IgG in BLI; also called 021) VH: QIQLVQSGPELKKPGESVKISCKASGYTFTDYAVYWVIQAPGKGLKWMGWINTYTGKPTYADDFKGRFVFSLETSASTANLQISNLKNEDTATYFCARGAGMTKDYVMDAWGRGVLVTVS VL: SYELIQPPSASVTLGNTVSLTCVGDELSKRYAQWYQQKPDKTIVSVIYKDSERPSDISDRFSGSSSGTTATLTIHGTLAEDEADYYCLSTYSDDNLPVFGGGTKLTVL"
property_name = "kon"
endpoint_result = "612000 M⁻¹ s⁻¹"

[[record]]
binder = "HC-13/LC-13 (Ab13) (antibody, IgG1, V domains shown, Purified IgG; also called 013) VH: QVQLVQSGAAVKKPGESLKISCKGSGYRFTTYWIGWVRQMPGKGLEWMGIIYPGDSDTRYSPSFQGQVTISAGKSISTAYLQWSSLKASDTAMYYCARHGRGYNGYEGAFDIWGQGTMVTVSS VL: DIVMTQSPSSLSASVGDRVTITCRASQGIRNDLGWYQQKPGKAPKLLIYDASSLESGVPSRFSGSGSGTDFTLTISSLQPEDFATYYCQQFNSYPLTFGGGTKLEIK"
property_name = "kon"
endpoint_result = "314000 M⁻¹ s⁻¹"


Next up:
(Q) Provide one value: measured kon of HC-19/LC-19 (Ab19) (antibody, IgG1, V domains shown, From rat immunization/hybridoma; purified IgG in BLI; also called 019) VH: EVQLQESGPGLVKPSQSLSLTCSVTGYSISSNYRWNWIRKFPGNKVEWMGYINSAGSTNYNPSLKSRISMTRDTSKNQFFLQVNSVTTEDTATYYCARSLRGYITDYSGFFDYWGQGVMVTVSS VL: DIRMTQSPASLSASLGETVNIECLASEDIFSDLAWYQQKPGKSPQLLIYNANSLQNGVPSRFSGSGSGTRYSLKINSLQSEDVATYFCQQYKNYPLTFGSGTKLEIK
(A) 205000 M⁻¹ s⁻¹
